The measured values listed here are drawn from patent US20240043467A1.

tgt: Recombinant human thymidylate synthase (hTS) (Homo sapiens)
Sequence (P04818 whole entry): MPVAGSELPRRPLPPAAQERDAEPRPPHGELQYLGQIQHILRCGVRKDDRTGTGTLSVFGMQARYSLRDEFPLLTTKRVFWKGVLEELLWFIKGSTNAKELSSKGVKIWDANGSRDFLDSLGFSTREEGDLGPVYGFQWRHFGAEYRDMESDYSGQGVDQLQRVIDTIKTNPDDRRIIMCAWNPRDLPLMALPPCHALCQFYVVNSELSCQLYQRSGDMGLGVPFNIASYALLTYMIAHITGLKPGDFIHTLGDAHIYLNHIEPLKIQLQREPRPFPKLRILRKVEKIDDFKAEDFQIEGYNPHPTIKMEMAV
protocol: Human thymidylate synthase inhibition assay
assay setup: 50 μM dUMP, 0.84 μM hTS, five repeats, pH 7.5, room temperature; read-out: IC50 against hTS
property measured: pIC50
Note on units: pIC50 is unitless, being -log10 of a concentration expressed in mol/L.

Task: Provide value of pIC50 for this record tested with Recombinant human thymidylate synthase (hTS) (Homo sapiens): C[C@@H](OP(=O)(O)O)[C@H]1O[C@@H](n2cc(F)c(=O)[nH]c2=O)C[C@@H]1O [MD-7-105, phosphate]
Result: 5.92
